# TEST_TARGET: Disintegrin and metalloproteinase domain-containing protein 10 (Homo sapiens, UniProt O14672)
# Sequence (O14672 whole entry): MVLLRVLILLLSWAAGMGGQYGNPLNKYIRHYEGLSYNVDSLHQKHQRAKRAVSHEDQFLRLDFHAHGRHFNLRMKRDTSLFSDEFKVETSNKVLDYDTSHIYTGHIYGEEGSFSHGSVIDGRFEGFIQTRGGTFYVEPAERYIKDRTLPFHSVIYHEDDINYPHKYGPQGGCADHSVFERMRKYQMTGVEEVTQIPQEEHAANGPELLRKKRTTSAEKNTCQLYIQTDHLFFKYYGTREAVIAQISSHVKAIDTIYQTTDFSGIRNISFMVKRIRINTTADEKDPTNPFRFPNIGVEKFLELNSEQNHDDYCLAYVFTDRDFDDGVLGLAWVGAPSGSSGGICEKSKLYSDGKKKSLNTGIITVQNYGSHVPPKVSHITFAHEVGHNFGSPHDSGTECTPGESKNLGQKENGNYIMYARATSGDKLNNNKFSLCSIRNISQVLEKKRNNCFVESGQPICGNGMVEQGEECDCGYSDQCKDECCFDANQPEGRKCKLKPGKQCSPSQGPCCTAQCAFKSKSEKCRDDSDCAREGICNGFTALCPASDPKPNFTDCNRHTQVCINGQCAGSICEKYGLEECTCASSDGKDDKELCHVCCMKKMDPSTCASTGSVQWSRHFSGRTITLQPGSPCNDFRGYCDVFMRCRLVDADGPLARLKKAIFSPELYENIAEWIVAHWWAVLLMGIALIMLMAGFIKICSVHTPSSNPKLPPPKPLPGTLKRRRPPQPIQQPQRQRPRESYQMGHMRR
# ASSAY: Binding affinity to ADAM10
pIC50: −log10 of the molar value.
REPORTED_ENDPOINT: pIC50

Illustrative cases are given below, each with its answer.
{"SMILES_NOTATION": "Cc1cc(N2CCN(C(=O)[C@H]3NCC4(CC4)C[C@@H]3C(=O)NO)CC2)ccc1C#N", "REPORTED_ENDPOINT": "pIC50", "READOUT_NUMBER": 7.42}
{"SMILES_NOTATION": "CC(=O)N1CC2(CC2)C[C@H](C(=O)NO)[C@H]1C(=O)N1CC=C(c2ccccc2)CC1", "REPORTED_ENDPOINT": "pIC50", "READOUT_NUMBER": 7.40}
{"SMILES_NOTATION": "O=C(NO)[C@H]1CC2(CC2)CN[C@@H]1C(=O)N1CC=C(c2cccc(C3CC3)c2)CC1", "REPORTED_ENDPOINT": "pIC50", "READOUT_NUMBER": 7.32}
{"SMILES_NOTATION": "CC(C)COC(=O)N1CC2(CC2)C[C@H](C(=O)NO)[C@H]1C(=O)N1CC=C(c2ccccc2)CC1", "REPORTED_ENDPOINT": "pIC50", "READOUT_NUMBER": 7.72}
{"SMILES_NOTATION": "CC(C)c1cc(C2=CCN(C(=O)[C@H]3NCC4(CC4)C[C@@H]3C(=O)NO)CC2)ccc1C#N", "REPORTED_ENDPOINT": "pIC50", "READOUT_NUMBER": 6.81}
{"SMILES_NOTATION": "Cc1cccc(N2CCN(C(=O)[C@H]3NCC4(CC4)C[C@@H]3C(=O)NO)CC2)c1", "REPORTED_ENDPOINT": "pIC50", "READOUT_NUMBER": 6.73}
{"SMILES_NOTATION": "O=C(NO)[C@H]1CC2(CC2)CN(C(=O)OC2CCOCC2)[C@@H]1C(=O)N1CCN(c2ccccc2)CC1", "REPORTED_ENDPOINT": "pIC50", "READOUT_NUMBER": 7.43}
{"SMILES_NOTATION": "CS(=O)(=O)N1CC2(CC2)C[C@H](C(=O)NO)[C@H]1C(=O)N1CCN(c2ccccc2)CC1", "REPORTED_ENDPOINT": "pIC50", "READOUT_NUMBER": 7.57}
{"SMILES_NOTATION": "CS(=O)(=O)N1CC2(CC2)C[C@H](C(=O)NO)[C@H]1C(=O)N1CC=C(c2ccccc2)CC1", "REPORTED_ENDPOINT": "pIC50", "READOUT_NUMBER": 7.29}
{"SMILES_NOTATION": "CCc1cccc(C2=CCN(C(=O)[C@H]3NCC4(CC4)C[C@@H]3C(=O)NO)CC2)c1", "REPORTED_ENDPOINT": "pIC50", "READOUT_NUMBER": 7.48}

(P) Cc1cc(C)cc(C2=CCN(C(=O)[C@H]3NCC4(CC4)C[C@@H]3C(=O)NO)CC2)c1
(Q) Cc1cc(C2=CCN(C(=O)[C@H]3NCC4(CC4)C[C@@H]3C(=O)NO)CC2)cc(C)c1C#N
## Task Returns the identifier with the smallest measured pIC50 among P and Q . Return value: the label identifying the chosen record.
## Result P

---

Listed here: compounds with reported pIC50 for 72 kDa type IV collagenase (Homo sapiens).
pIC50: −log10 of the molar value.
REPORTED_ENDPOINT: pIC50

Illustrative cases are given below, each with its answer.
{"COMPOUND": "O=C(NO)[C@H]1CC2(CC2)CN[C@@H]1C(=O)N1CCC(c2ccccc2)C1 (stereo partly specified)", "TEST_TARGET": "72 kDa type IV collagenase (Homo sapiens)", "pIC50": 6.02}
{"COMPOUND": "Cc1cc(C2=CCN(C(=O)[C@H]3NCC4(CC4)C[C@@H]3C(=O)NO)CC2)cc(C)c1C#N", "TEST_TARGET": "72 kDa type IV collagenase (Homo sapiens)", "pIC50": 6.80}
{"COMPOUND": "O=C(NO)[C@H]1CC2(CC2)CN[C@@H]1C(=O)N1CC=C(c2cc(F)cc(F)c2)CC1", "TEST_TARGET": "72 kDa type IV collagenase (Homo sapiens)", "pIC50": 7.85}

(A) CS(=O)(=O)N1CC2(CC2)C[C@H](C(=O)NO)[C@H]1C(=O)N1CC=C(c2ccccc2)CC1
(B) COC(=O)N1CC2(CC2)C[C@H](C(=O)NO)[C@H]1C(=O)N1CC=C(c2ccccc2)C1
## Task Between these two entries, A and B , state which has the higher pIC50. Return value: the label identifying the chosen record.
## Result A

(I) COc1cccc(C2=CCN(C(=O)[C@H]3NCC4(CC4)C[C@@H]3C(=O)NO)CC2)c1
(II) O=C(NO)[C@H]1CC2(CC2)CN[C@@H]1C(=O)N1CC=C(c2cc(Cl)cc(Cl)c2)CC1
(III) CC(C)c1cccc(C2CCN(C(=O)[C@H]3NCC4(CC4)C[C@@H]3C(=O)NO)CC2)c1
## Task Ordering: ascending pIC50. Give the labels in the order requested.
## Result II, III, I
(II: 5.30, III: 5.86, I: 7.30)

---

# TEST_TARGET: Disintegrin and metalloproteinase domain-containing protein 10 (Homo sapiens)
# ASSAY: Inhibition of HER2 sheddase in BT474 cells by extracellular domain shedding assay
# Assay type: cell-based, BT-474
REPORTED_ENDPOINT: IC50 (µM)

Illustrative cases are given below, each with its answer.
{"COMPOUND": "CS(=O)(=O)N1CC2(CC2)C[C@H](C(=O)NO)[C@H]1C(=O)N1CCN(c2ccccc2)CC1", "IC50 [µM]": 0.045}
{"COMPOUND": "O=C(NO)[C@H]1CC2(CC2)CN[C@@H]1C(=O)N1CC=C(c2cc(F)cc(F)c2)CC1", "IC50 [µM]": 0.024}
{"COMPOUND": "COC(=O)N1CC2(CC2)C[C@H](C(=O)NO)[C@H]1C(=O)N1CCC(c2ccccc2)C1 (stereo partly drawn)", "IC50 [µM]": 0.289}

(P) Cc1cc(C)cc(C2=CCN(C(=O)[C@H]3NCC4(CC4)C[C@@H]3C(=O)NO)CC2)c1
(Q) CCc1cccc(C2=CCN(C(=O)[C@H]3NCC4(CC4)C[C@@H]3C(=O)NO)CC2)c1
(R) O=C(NO)[C@H]1CC2(CC2)CN[C@@H]1C(=O)N1CCC(c2ccccc2)CC1
## Task Ordering: ascending IC50. Give the labels in the order requested.
## Result P, R, Q

(a) CC(C)c1cccc(C2CCN(C(=O)[C@H]3NCC4(CC4)C[C@@H]3C(=O)NO)CC2)c1
(b) CC(=O)N1CC2(CC2)C[C@H](C(=O)NO)[C@H]1C(=O)N1CC=C(c2ccccc2)CC1
## Task Returns the identifier with the smallest measured IC50 among a and b . Return value: the label identifying the chosen record.
## Result b

(P) O=C(NO)[C@H]1CC2(CC2)CN[C@@H]1C(=O)N1CCN(c2cccc(Cl)c2)CC1
(Q) CS(=O)(=O)N1CC2(CC2)C[C@H](C(=O)NO)[C@H]1C(=O)N1CC=C(c2ccccc2)CC1
(R) CC(C)c1cc(C2=CCN(C(=O)[C@H]3NCC4(CC4)C[C@@H]3C(=O)NO)CC2)ccc1C#N
(S) COC(=O)N1CC2(CC2)C[C@H](C(=O)NO)[C@H]1C(=O)N1CCC(c2ccccc2)CC1
(T) Cc1cc(N2CCN(C(=O)[C@H]3NCC4(CC4)C[C@@H]3C(=O)NO)CC2)ccc1C#N
## Task Ordering: ascending IC50. Give the labels in the order requested.
## Result P, Q, S, T, R

(P) Cc1cc(C2=CCN(C(=O)[C@H]3NCC4(CC4)C[C@@H]3C(=O)NO)CC2)cc(C)c1C#N
(Q) Cc1cccc(C2CCN(C(=O)[C@H]3NCC4(CC4)C[C@@H]3C(=O)NO)CC2)c1
(R) COC(=O)N1CC2(CC2)C[C@H](C(=O)NO)[C@H]1C(=O)N1CC=C(c2ccccc2)C1
## Task List these items ordered by IC50, big to small. Give the labels in the order requested.
## Result Q, P, R
(Q: 0.689 µM, P: 0.129 µM, R: 0.034 µM)

(P) O=C(NO)[C@H]1CC2(CC2)CN[C@@H]1C(=O)N1CC=C(c2ccccc2)C1
(Q) CC(C)COC(=O)N1CC2(CC2)C[C@H](C(=O)NO)[C@H]1C(=O)N1CC=C(c2ccccc2)CC1
## Task Between these two entries, P and Q , state which has the higher IC50. Return value: the label identifying the chosen record.
## Result Q
(Q: 0.15 µM, P: 0.013 µM)
